Every entry's value here was drawn from patent US20220048967A1.

- Target Or System: T1, human gastric inhibitory peptide receptor (GIPR) (human, UniProt P48546 22-466)
- T1 sequence (looked up): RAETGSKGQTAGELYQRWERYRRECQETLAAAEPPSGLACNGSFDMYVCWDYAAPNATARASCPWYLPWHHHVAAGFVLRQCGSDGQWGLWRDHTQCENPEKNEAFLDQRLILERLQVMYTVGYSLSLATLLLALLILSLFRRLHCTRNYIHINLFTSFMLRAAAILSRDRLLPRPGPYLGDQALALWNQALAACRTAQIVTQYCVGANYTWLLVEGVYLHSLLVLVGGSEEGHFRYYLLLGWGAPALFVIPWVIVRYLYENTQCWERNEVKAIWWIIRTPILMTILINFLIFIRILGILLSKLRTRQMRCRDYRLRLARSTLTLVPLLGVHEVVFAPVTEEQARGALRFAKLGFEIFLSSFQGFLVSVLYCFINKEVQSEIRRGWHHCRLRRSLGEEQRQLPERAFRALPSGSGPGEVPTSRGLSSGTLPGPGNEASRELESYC
- Assay Protocol: cell-based or functional assay
Square brackets hold non-standard residues; d marks the D form. Ends that are not written are not given here. αMePhe(2-F) = C[C@](N)(Cc1ccccc1F)C(=O)O; Aib = CC(C)(N)C(=O)O
Listing: hGIPR cAMP Rel EC50 of selected binders

Binder	Unit Info	hGIPR cAMP Rel EC50
Y[Aib]EGT[αMePhe(2-F)]TSDYSIXLDEKAQ[Aib]EFISYLIEGGPSSGAPPPS-NH2 (not fully specified (residues 13, 17); printed as Y-Aib-EGT-αMeF(2F)-TSDYSI-αMeF-LDEK((2-[2-(2-Amino-ethoxy)-ethoxy]-acetyl)2-(γ-Glu)-CO-(CH2)18-CO2H)AQ-Aib-EFISYLIEGGPSSGAPPPS-NH2) [Example 150]	nM	0.0511
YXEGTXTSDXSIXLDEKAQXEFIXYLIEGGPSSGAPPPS (Y-Aib-EGT-αMeF(2F)-TSD-3Pal-SI-αMeF-LDEK((2-[2-(2-Amino-ethoxy)-ethoxy]-acetyl)2-(γ-Glu)-CO-(CH2)18-CO2H)AQ-Aib-EFI-Aib-YLIEGGPSSGAPPPS-NH2) [Example 188]	nM	0.121
